The entries below come with measured Winter Wheat (Hereward) (damage to plant) values attached.
# Tested on: Winter Wheat variety 'Hereward'
# PROTOCOL NOTES: Crop damage to winter wheat, post-emergence spray
# Type: in vivo
# ASSAY CONTEXT: 250 g/ha, no safener, evaluated after 13 days, 100=total damage to plant, 0=no damage
READOUT TYPE: Winter Wheat (Hereward) (damage to plant)

COMPOUND	VALUE REPORTED
CCc1sc(-c2ccc(Cl)cc2)nc1C1C(=O)C/C(=C\C2CCOCC2)C1=O (centres unmarked)	90
Cc1cc(-c2ccc(Cl)cc2)nn1C1C(=O)C/C(=C\C2CCOCC2)C1=O (centres unmarked)	80
Cc1sc(-c2ccc(Cl)cc2)cc1C1C(=O)CC(CC2CCOCC2)C1=O (centres unmarked)	10
Cc1sc(-c2ccc(Cl)cc2)nc1C1C(=O)C/C(=C/c2ccccn2)C1=O (centres unmarked)	10
Cc1cc(-c2ccc(Cl)cc2)nn1C1C(=O)C/C(=C\c2ccc(F)cn2)C1=O (centres unmarked)	20
Cc1sc(-c2ccc(Cl)cc2)nc1C1C(=O)C/C(=C\C2CCOCC2)C1=O (centres unmarked)	70
Cc1cnc(-c2ccc(Cl)cc2)nc1C1C(=O)CC(CC2CCOCC2)C1=O (centres unmarked)	20
Cc1cc(-c2ccc(Cl)cc2)nn1C1C(=O)C/C(=C/c2ccc(F)cn2)C1=O (centres unmarked)	60

---

# Test system: Winter Wheat variety 'Hereward'
# PROTOCOL NOTES: Crop damage to winter wheat, post-emergence spray
# Format: in vivo
# ASSAY CONTEXT: 250 g/ha, no safener, evaluated after 13 days, 100=total damage to plant, 0=no damage
Values of Winter Wheat (Hereward) (damage to plant) strictly less than 60 map to true (1), and values of at least 60 map to false (0).

COMPOUND	TARGET SYSTEM	GROUP
Cc1sc(-c2ccc(C(C)C)cc2)nc1C1C(=O)C/C(=C\C2CCOCC2)C1=O (centres unmarked) [Compound A1]	Winter Wheat variety 'Hereward'	true (1)
Cc1cc(-c2ccc(Cl)cc2)nn1C1C(=O)CC(Cc2ccc(F)cn2)C1=O (centres unmarked) [Compound A20]	Winter Wheat variety 'Hereward'	false (0)
Cc1cnc(-c2ccc(Cl)cc2)nc1C1C(=O)C/C(=C\C2CCOCC2)C1=O (centres unmarked) [Compound A9]	Winter Wheat variety 'Hereward'	true (1)
Cc1sc(-c2ccc(Cl)cc2)nc1C1C(=O)CC(CC2CCOCC2)C1=O (centres unmarked) [Compound A18]	Winter Wheat variety 'Hereward'	false (0)
Cc1sc(-c2ccc(Cl)cc2)nc1C1C(=O)CC(Cc2ccc(F)cn2)C1=O (centres unmarked) [Compound A12]	Winter Wheat variety 'Hereward'	false (0)
Cc1cc(-c2ccc(Cl)cc2)nn1C1C(=O)CC(CC2CCOCC2)C1=O (centres unmarked) [Compound A25]	Winter Wheat variety 'Hereward'	false (0)

---

# System: Winter Wheat variety 'Hereward'
# PROTOCOL NOTES: Crop damage to winter wheat seed treated with safener cloquintocet mexyl, post-emergence spray
# Type: in vivo
# ASSAY CONTEXT: 250 g/ha, seed treated with cloquintocet mexyl 0.5 g/kg seed, evaluated after 13 days, 100=total damage, 0=no damage
The entries below come with measured Winter Wheat (Hereward) + cloquintocet mexyl (damage to plant) values attached.
READOUT TYPE: Winter Wheat (Hereward) + cloquintocet mexyl (damage to plant)

COMPOUND	VALUE REPORTED
Cc1sc(-c2ccc(C(C)C)cc2)nc1C1C(=O)C/C(=C\C2CCOCC2)C1=O (stereo not shown)	0
Cc1cc(-c2ccc(Cl)cc2)nn1C1C(=O)CC(CC2CCOCC2)C1=O (stereo not shown)	40
Cc1cc(-c2ccc(Cl)cc2)nn1C1C(=O)C/C(=C\C2CCOCC2)C1=O (stereo not shown)	60
Cc1cnc(-c2ccc(Cl)cc2)nc1C1C(=O)C/C(=C\C2CCOCC2)C1=O (stereo not shown)	0
Cc1cc(-c2ccc(Cl)cc2)nn1C1C(=O)C/C(=C\c2ccc(F)cn2)C1=O (stereo not shown)	10
Cc1sc(-c2ccc(Cl)cc2)nc1C1C(=O)CC(Cc2ccccn2)C1=O (stereo not shown)	60
Cc1sc(-c2ccc(Cl)cc2)cc1C1C(=O)CC(CC2CCOCC2)C1=O (stereo not shown)	0
Cc1cc(-c2ccc(Cl)cc2)nn1C1C(=O)CC(Cc2ccc(F)cn2)C1=O (stereo not shown)	70
CCc1sc(-c2ccc(Cl)cc2)nc1C1C(=O)C/C(=C\C2CCOCC2)C1=O (stereo not shown)	40
Cc1sc(-c2ccc(Cl)cc2)nc1C1C(=O)CC(Cc2ccc(F)cn2)C1=O (stereo not shown)	80
Cc1sc(-c2ccc(Cl)cc2)nc1C1C(=O)C/C(=C/c2ccccn2)C1=O (stereo not shown)	0
Cc1cc(-c2ccc(Cl)cc2)nn1C1C(=O)C/C(=C/c2ccc(F)cn2)C1=O (stereo not shown)	10
Cc1sc(-c2ccc(Cl)cc2)nc1C1C(=O)C/C(=C\C2CCOCC2)C1=O (stereo not shown)	0
Cc1cnc(-c2ccc(Cl)cc2)nc1C1C(=O)CC(CC2CCOCC2)C1=O (stereo not shown)	0
Cc1sc(-c2ccc(Cl)cc2)nc1C1C(=O)CC(CC2CCOCC2)C1=O (stereo not shown)	90
Cc1sc(-c2ccccc2)nc1C1C(=O)CC(CC2CCOCC2)C1=O (stereo not shown)	40
